# assay protocol: Phase 1 multiple-dose study in healthy volunteers: pharmacokinetics (Table 28)
# Type: in vivo
# settings: both, human, plasma, oral; Stage 1, 1.2 mg/kg BID, Day 1, mean; read-out: Tmax (after PM dose)
value type: Tmax (h)
# unit: h | format: bare number

Look up and state reported Tmax for COc1ccc([C@H]2c3[nH]c4ccc(Cl)cc4c3CCN2C(=O)Oc2ccc(Cl)cc2)cc1 (racemic) 3

###

# assay protocol: Phase 1 multiple-dose study in healthy volunteers: pharmacokinetics (Table 28)
# Type: in vivo
# settings: both sexes, human, plasma, oral, 0.6 mg/kg, Stage 1, 0.6 mg/kg BID, Day 7, mean; read-out: Cmax (after PM dose)
value type: Cmax (µg/mL)
# unit: µg/mL | format: bare number

Look up and state reported Cmax for COc1ccc([C@H]2c3[nH]c4ccc(Cl)cc4c3CCN2C(=O)Oc2ccc(Cl)cc2)cc1 (racemic) 1.16

###

# assay protocol: Phase 1 multiple-dose study in healthy volunteers: pharmacokinetics (Table 28)
# Assay type: in vivo
# settings: both, human, plasma, oral, […], Stage 2, […] TID, Day 1, mean; read-out: Tmax (after PM dose)
value type: Tmax (h)
# unit: h | format: bare number

Look up and state reported Tmax for COc1ccc([C@H]2c3[nH]c4ccc(Cl)cc4c3CCN2C(=O)Oc2ccc(Cl)cc2)cc1 (racemic) 2.5

###

# assay protocol: Phase 1 multiple-dose study in healthy volunteers: pharmacokinetics (Table 28)
# Type: in vivo
# settings: both sexes, human, plasma, oral, 0.6 mg/kg, Stage 1, 0.6 mg/kg BID, Day 1, mean; read-out: AUC0-24
value type: AUC(0-t) (ng·h/mL)
# unit: ng·h/mL | format: bare number

Look up and state reported AUC(0-t) for COc1ccc([C@H]2c3[nH]c4ccc(Cl)cc4c3CCN2C(=O)Oc2ccc(Cl)cc2)cc1 (racemic) 10100

###

# assay protocol: Phase 1 multiple-dose study in healthy volunteers: pharmacokinetics (Table 28)
# Format: in vivo
# settings: both sexes, human, plasma, oral, 0.6 mg/kg BID, Stage 1, 0.6 mg/kg BID, Day 1, mean; 24 hours after first daily dose; read-out: C24 h
value type: concentration at 24 h

Look up and state reported concentration at 24 h for COc1ccc([C@H]2c3[nH]c4ccc(Cl)cc4c3CCN2C(=O)Oc2ccc(Cl)cc2)cc1 (racemic) [Compound #10] 260 ng/mL

###

# assay protocol: Phase 1 multiple-dose study in healthy volunteers: pharmacokinetics (Table 28)
# Assay type: in vivo
# settings: both sexes, human, plasma, oral, 0.3 mg/kg, Stage 1, 0.3 mg/kg BID, Day 7, mean; read-out: AUC0-24
value type: AUC(0-t) (ng·h/mL)
# unit: ng·h/mL | format: bare number

Look up and state reported AUC(0-t) for COc1ccc([C@H]2c3[nH]c4ccc(Cl)cc4c3CCN2C(=O)Oc2ccc(Cl)cc2)cc1 (racemic) [Compound #10] 8440

###

# assay protocol: 7-day oral toxicity study in rats
# settings: Sprague Dawley, rat, in vivo; female rats
value type: NOAEL at 7 days (mg/kg/day)
# unit: mg/kg/day | format: bare number

Look up and state reported NOAEL at 7 days for COc1ccc([C@H]2c3[nH]c4ccc(Cl)cc4c3CCN2C(=O)Oc2ccc(Cl)cc2)cc1 (racemic) 120

###

# assay protocol: in vivo
# settings: both, beagle, dog
value type: NOAEL at 28 days (mg/kg/day)
# unit: mg/kg/day | format: bare number

Look up and state reported NOAEL at 28 days for COc1ccc([C@H]2c3[nH]c4ccc(Cl)cc4c3CCN2C(=O)Oc2ccc(Cl)cc2)cc1 (racemic) [Compound #10] 30

###

# assay protocol: Trough plasma concentrations of Compound #10 in HT1080 xenograft mice (HPLC-MS/MS)
# Type: in vivo
# settings: athymic nude, mouse, oral, 1 mg/kg BID, 16 hours after the first day of dosing (n=3), read-out: Mean trough plasma concentration
value type: concentration at 16 h (ng/mL)
# unit: ng/mL | format: bare number

Look up and state reported concentration at 16 h for COc1ccc([C@H]2c3[nH]c4ccc(Cl)cc4c3CCN2C(=O)Oc2ccc(Cl)cc2)cc1 (racemic) [Compound #10] 130

###

# assay protocol: 7-day oral toxicity study in rats
# settings: Sprague Dawley, rat, in vivo; male rats
value type: NOAEL at 7 days (mg/kg/day)
# unit: mg/kg/day | format: bare number

Look up and state reported NOAEL at 7 days for COc1ccc([C@H]2c3[nH]c4ccc(Cl)cc4c3CCN2C(=O)Oc2ccc(Cl)cc2)cc1 (racemic) 40

###

# assay protocol: Phase 1 multiple-dose study in healthy volunteers: pharmacokinetics (Table 28)
# Format: in vivo
# settings: both sexes, human, plasma, oral, 0.3 mg/kg, Stage 1, 0.3 mg/kg BID, Day 1, mean; read-out: Tmax (after PM dose)
value type: Tmax (h)
# unit: h | format: bare number

Look up and state reported Tmax for COc1ccc([C@H]2c3[nH]c4ccc(Cl)cc4c3CCN2C(=O)Oc2ccc(Cl)cc2)cc1 (racemic) [Compound #10] 3.16

###

# assay protocol: Phase 1 multiple-dose study in healthy volunteers: pharmacokinetics (Table 28)
# Assay type: in vivo
# settings: both sexes, human, plasma, oral, Stage 1 and Stage 2; read-out: Mean Tmax
value type: Tmax

Look up and state reported Tmax for COc1ccc([C@H]2c3[nH]c4ccc(Cl)cc4c3CCN2C(=O)Oc2ccc(Cl)cc2)cc1 (racemic) [Compound #10] ~3 h

###

# assay protocol: in vivo
# settings: Sprague Dawley, rat
value type: NOAEL at 28 days (mg/kg/day)
# unit: mg/kg/day | format: bare number

Look up and state reported NOAEL at 28 days for COc1ccc([C@H]2c3[nH]c4ccc(Cl)cc4c3CCN2C(=O)Oc2ccc(Cl)cc2)cc1 (racemic) 12

###

# assay protocol: Phase 1 multiple-dose study in healthy volunteers: pharmacokinetics (Table 28)
# Assay type: in vivo
# settings: both sexes, human, plasma, oral, 0.3 mg/kg, Stage 1, 0.3 mg/kg BID, Day 7, mean; read-out: Cmax (after PM dose)
value type: Cmax (ng/mL)
# unit: ng/mL | format: bare number

Look up and state reported Cmax for COc1ccc([C@H]2c3[nH]c4ccc(Cl)cc4c3CCN2C(=O)Oc2ccc(Cl)cc2)cc1 (racemic) 590

###

# assay protocol: in vivo
# settings: beagle, dog
value type: NOAEL at 7 days (mg/kg/day)
# unit: mg/kg/day | format: bare number

Look up and state reported NOAEL at 7 days for COc1ccc([C@H]2c3[nH]c4ccc(Cl)cc4c3CCN2C(=O)Oc2ccc(Cl)cc2)cc1 (racemic) 60

###

# assay protocol: Phase 1 multiple-dose study in healthy volunteers: pharmacokinetics (Table 28)
# Format: in vivo
# settings: both sexes, human, plasma, oral, 0.6 mg/kg BID, Stage 1, 0.6 mg/kg BID, Day 7, mean; 24 hours after first daily dose; read-out: C24 h
value type: concentration at 24 h (ng/mL)
# unit: ng/mL | format: bare number

Look up and state reported concentration at 24 h for COc1ccc([C@H]2c3[nH]c4ccc(Cl)cc4c3CCN2C(=O)Oc2ccc(Cl)cc2)cc1 (racemic) 540

###

# assay protocol: Phase 1 multiple-dose study in healthy volunteers: pharmacokinetics (Table 28)
# Assay type: in vivo
# settings: both sexes, human, plasma, oral, 0.3 mg/kg, Stage 1, 0.3 mg/kg BID, Day 1, mean; read-out: Cmax (after PM dose)
value type: Cmax (ng/mL)
# unit: ng/mL | format: bare number

Look up and state reported Cmax for COc1ccc([C@H]2c3[nH]c4ccc(Cl)cc4c3CCN2C(=O)Oc2ccc(Cl)cc2)cc1 (racemic) 480

###

# assay protocol: Phase 1 multiple-dose study in healthy volunteers: pharmacokinetics (Table 28)
# Format: in vivo
# settings: both sexes, human, plasma, oral; Stage 1, 0.6 mg/kg BID, Day 7, mean; read-out: AUC0-24
value type: AUC(0-t) (ng·h/mL)
# unit: ng·h/mL | format: bare number

Look up and state reported AUC(0-t) for COc1ccc([C@H]2c3[nH]c4ccc(Cl)cc4c3CCN2C(=O)Oc2ccc(Cl)cc2)cc1 (racemic) [Compound #10] 18600

###

# assay protocol: Phase 1 multiple-dose study in healthy volunteers: pharmacokinetics (Table 28)
# Type: in vivo
# settings: both sexes, human, plasma, oral, 0.3 mg/kg BID, Stage 1, 0.3 mg/kg BID, Day 1, mean; 24 hours after first daily dose; read-out: C24 h
value type: concentration at 24 h (ng/mL)
# unit: ng/mL | format: bare number

Look up and state reported concentration at 24 h for COc1ccc([C@H]2c3[nH]c4ccc(Cl)cc4c3CCN2C(=O)Oc2ccc(Cl)cc2)cc1 (racemic) [Compound #10] 94
